observationType: melting point

| molecule | melting point |
| --- | --- |
| O=C(Cc1cc[n+]([O-])cc1)N1CCC(=C2c3ccc(Cl)cc3CCc3cccnc32)CC1 | 128 to 130 °C |
| O=C(Cc1cccnc1)N1CCC(C2c3ccc(Cl)cc3CCc3cccnc32)CC1 (stereo not shown) [Example 82A] | 81.7 to 82 °C |
| O=C(Nc1ccc2c(c1)CCc1cccnc1C2=C1CCN(C(=O)Cc2ccncc2)CC1)OCc1ccccc1 | 132.8 to 133.7 °C |

# ---- query molecule ----
Entry under review: `O=C(Cc1ccnc(Br)c1)N1CCC(=C2c3ccc(Cl)cc3CCc3cc(Br)cnc32)CC1` . Reported melting point?
134 to 136.1 °C

###

observationType: melting point

| molecule | observationType | observedValue |
| --- | --- | --- |
| O=C(c1cc[n+]([O-])cc1)N1CCC(=C2c3ccc(Cl)cc3CCc3cccnc32)CC1 | melting point | 228 °C (dec.) |
| O=C(C(c1ccccc1)c1ccccc1)N1CCC(=C2c3ccc(Cl)cc3CCc3cccnc32)CC1 | melting point | 114.2 to 115.8 °C |
| Cn1cc(Br)c(=O)c2c1C(=C1CCN(C(=O)Cc3ccncc3)CC1)c1ccc(Cl)cc1CC2 | melting point | 142 °C (dec.) |
| O=C(Nc1ccncc1)N1CCC(=C2c3ccc(Cl)cc3CCc3cc(Cl)ccc32)CC1 | melting point | 206.4 to 207 °C |
| CCc1cc2c(cc1Cl)C=Cc1cccnc1C2C1CCN(C(=O)Cc2cccnc2)CC1 (centres unmarked) | melting point | 67.2 to 69.8 °C |

Please report melting point for every entry that follows.
1. O=C(Cc1cccnc1)N1CCC(C2c3ccc(Cl)cc3CCc3ccc[n+]([O-])c32)CC1 (centres unmarked)
2. O=C(Cc1cccnc1)N1CCC(=C2c3ccc(Cl)cc3CCc3c(Cl)ccnc32)CC1
3. O=C(Cc1ccccn1)N1CCC(=C2c3ccc(Cl)cc3CCc3cccnc32)CC1

1. 61.8 to 62.3 °C
2. 59.8 to 63.5 °C
3. 122 to 125 °C

###

Target: farnesyl protein transferase (FPT), partially purified from rat brain (Rattus norvegicus, UniProt Q02293+Q04631)
Construct: were partially purified from rat brain by ammonium sulfate fractionation followed by Q-Sepharose
Test: Inhibition of farnesyl protein transferase (transfer of [3H]farnesyl to Ras-CVLS)
Assay type: biochemical
Conditions: Ras-CVLS farnesylation, partially purified rat brain FPT; read-out: FPT IC50
Experimental: 1. In vitro enzyme assays: Inhibition of farnesyl protein transferase and geranylgeranyl protein transferase. Human farnesyl protein transferase was also expressed in E. coli, using cDNA clones encoding both the α and β subunits. […] The reaction was allowed to proceed for 30 minutes at room temperature and then stopped with 0.5 ml of 4% sodium dodecyl sulfate (SDS) followed by 0.5 ml of cold 30% trichloracetic acid (TCA). […] Percent inhibition was calculated relative to the DMSO vehicle control.
Give IC50 for every item shown.
Give bare numbers, in µM.

Sample answers from the record:
| molecule | observationType | valueUnit | observedValue |
| --- | --- | --- | --- |
| CC(=O)N1CCC(=C2c3ccccc3CCc3c2[nH]c2ccccc32)CC1 | IC50 | µM | 15.7 |
| O=C(Cc1ccc[n+]([O-])c1)N1CCC(C2c3ccc(Cl)cc3CCc3cccnc32)CC1 (stereo not shown) | IC50 | µM | 0.67 |

Each of the following entries comes with a recorded value; kindly state IC50 for each.
1. Cc1ccc2c(O)c(C(=O)N3CCC(=C4c5ccc(Cl)cc5CCc5cccnc54)CC3)cnc2n1
2. CC1(C2=CCN(C(=O)Cc3ccncc3)CC2)c2ccc(Cl)cc2CCc2cccnc21 (stereo not shown)

5.2
2.2
